Where do the numbers come from? From paper PMC4336329.

I'd appreciate it if you could supply hERG current change (%, negative = inhibition) at 1uM values for the items below.
# targetSystem: human ether-à-go-go-related gene (hERG) potassium channel (human)
# Sequence (Q12809 whole entry, looked up): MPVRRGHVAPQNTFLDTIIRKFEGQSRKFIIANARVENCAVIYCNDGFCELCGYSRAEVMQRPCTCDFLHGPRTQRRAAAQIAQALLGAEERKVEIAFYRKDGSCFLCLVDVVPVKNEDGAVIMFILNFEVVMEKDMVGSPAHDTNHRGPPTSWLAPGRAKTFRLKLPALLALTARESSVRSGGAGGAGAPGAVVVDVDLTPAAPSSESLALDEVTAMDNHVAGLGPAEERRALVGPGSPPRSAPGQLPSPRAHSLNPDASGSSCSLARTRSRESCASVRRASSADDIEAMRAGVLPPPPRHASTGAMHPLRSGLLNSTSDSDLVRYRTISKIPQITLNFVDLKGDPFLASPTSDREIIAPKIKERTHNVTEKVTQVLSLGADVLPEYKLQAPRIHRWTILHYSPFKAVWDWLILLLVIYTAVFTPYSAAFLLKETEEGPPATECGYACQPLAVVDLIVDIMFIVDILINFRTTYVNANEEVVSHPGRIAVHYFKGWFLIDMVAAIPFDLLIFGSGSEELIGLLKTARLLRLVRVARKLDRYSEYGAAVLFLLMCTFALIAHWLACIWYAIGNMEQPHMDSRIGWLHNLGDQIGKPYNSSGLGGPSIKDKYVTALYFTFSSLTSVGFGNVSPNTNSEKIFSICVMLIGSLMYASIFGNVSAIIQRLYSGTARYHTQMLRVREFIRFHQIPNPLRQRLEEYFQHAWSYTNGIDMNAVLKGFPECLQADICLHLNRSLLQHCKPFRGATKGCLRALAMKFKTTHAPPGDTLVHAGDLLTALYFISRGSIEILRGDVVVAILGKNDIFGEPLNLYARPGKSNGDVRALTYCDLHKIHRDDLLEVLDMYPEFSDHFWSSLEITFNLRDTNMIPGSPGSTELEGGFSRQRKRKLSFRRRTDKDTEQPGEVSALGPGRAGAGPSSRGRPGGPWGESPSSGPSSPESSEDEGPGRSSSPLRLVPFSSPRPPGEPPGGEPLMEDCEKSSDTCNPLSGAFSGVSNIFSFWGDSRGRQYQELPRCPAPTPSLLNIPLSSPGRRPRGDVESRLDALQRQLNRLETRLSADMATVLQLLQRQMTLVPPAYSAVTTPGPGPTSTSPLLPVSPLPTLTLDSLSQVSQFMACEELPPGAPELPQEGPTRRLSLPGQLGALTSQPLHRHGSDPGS
# test: primary screen, population patch clamp on CHO cells stably expressing hERG; higher = less effect of the substance
The campaign covered roughly 310,000 compounds. About 2,200 (0.71%) showed an effect of 50% or more. Effects have a minus sign here. The sample holds strong results, similar compounds and a random draw of the others, so the mix is not that of the screen.
Remember to quote the unit after the number.

Record excerpt, results attached:
[[record]]
compound = "CC12CCC(=O)N1C(C(=O)OCC(=O)Nc1cccc(S(=O)(=O)N3CCCCCC3)c1)CS2 (centres unmarked)"
measured = "-51.9%"

[[record]]
compound = "COc1ccc(C[C@H]2CN3C(=NC[C@@H]3Cc3ccc(O)cc3)N2CCNC(=O)c2ccc(C)c(Br)c2)cc1"
measured = "-18.4%"

[[record]]
compound = "COc1ccc2c(c1)C(=O)CC(c1ccc3c(c1)OCCO3)O2 (centres unmarked)"
measured = "16.1%"

[[record]]
compound = "COc1ccc(-c2oc3ncn(CCN4CCOCC4)c(=N)c3c2-c2ccc(OC)cc2)cc1"
measured = "-7.75%"

[[record]]
compound = "CCOc1ccc(N2C(=O)c3cccnc3C2Nc2ccc(OC)cc2)cc1 (centres unmarked)"
measured = "1.01%"

[[record]]
compound = "Oc1ccc2ccccc2c1Br"
measured = "12.1%"

[[record]]
compound = "CCOC(=O)C1CCCN(C(=O)CC(c2ccccc2)c2ccccc2)C1 (centres unmarked)"
measured = "-2.54%"

[[record]]
compound = "C=CCn1c(SCC(=O)Nc2sccc2C(N)=O)nc2ccc(Cl)cc2c1=O"
measured = "1.53%"

[[record]]
compound = "COC(=O)c1ccc(/C=N/NC(=O)C2CC(=O)N(c3ccc(F)cc3)C2)cc1 (centres unmarked)"
measured = "16.8%"

[[record]]
compound = "CCc1ccc(CN(C)C(=O)C2CCC(=O)N(CC3CCCCC3)C2)cc1 (centres unmarked)"
measured = "-12.3%"


Respectfully, I request hERG current change (%, negative = inhibition) at 1uM for each entry included below.
1. N=c1c2c(-c3ccccc3)c(-c3ccccc3)oc2ncn1Cc1ccco1
2. Cc1ccc(C(=O)NCCN2C3=NC[C@@H](Cc4ccccc4)N3C[C@H]2Cc2ccc(O)cc2)cc1Br
3. COc1ccc(CCN2C(=O)CSC2=S)cc1OC
4. CCC(C)(C(=O)NC1CCCCC1)N(CC1CCCO1)C(=O)c1ccccn1 (centres unmarked)
5. O=C(/C=C/c1ccccc1)N1CCN(c2ccccn2)CC1
6. Cc1ccc(-c2sc(C)nc2CC(=O)O)cc1
7. O=C(/C=C/c1cccc(F)c1)N1CCN(c2ccccn2)CC1

Output:
1. 9.94%
2. -4.33%
3. 11.5%
4. -80.8%
5. -3.17%
6. 7.75%
7. -68.4%
